# ASSAY TARGET: GST-Aq-NF-kB (Amphimedon queenslandica, UniProt A9Y5G7 2-389)
# Sequence: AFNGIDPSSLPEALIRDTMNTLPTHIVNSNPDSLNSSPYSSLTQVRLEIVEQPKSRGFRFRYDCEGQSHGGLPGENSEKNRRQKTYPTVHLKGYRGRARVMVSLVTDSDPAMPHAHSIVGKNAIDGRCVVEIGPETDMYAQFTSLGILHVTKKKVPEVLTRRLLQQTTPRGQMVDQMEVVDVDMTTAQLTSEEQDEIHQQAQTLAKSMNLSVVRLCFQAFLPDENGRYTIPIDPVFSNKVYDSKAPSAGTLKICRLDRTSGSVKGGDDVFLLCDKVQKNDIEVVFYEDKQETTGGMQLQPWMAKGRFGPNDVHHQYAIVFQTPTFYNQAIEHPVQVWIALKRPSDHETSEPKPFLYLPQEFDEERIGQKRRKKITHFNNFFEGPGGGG
# ASSAY NOTES: protein-binding microarray (PBM); PBM: ~300 nM protein, 6 mM HEPES pH 7.8, 80 mM KCl, 0.5 mM EDTA, 0.5 mM EGTA, 6% glycerol, 35 ng/ul poly-dIdC, 1% milk, 1 h, room temperature; high values mean tight binding
# ASSAY CONTEXT: dsDNA, one strand shown
RESULT TYPE: binding signal (z-score)
Return type: number; implicit unit z-score.

Below, each entry is followed by its recorded binding signal result.
>>> value_measured("CCGATTAACATCAAGGAAAGTCCTGATGTTAATCGGGTCTTGATTCGCTTGACGCTGCTG")
4.65
>>> value_measured("CCGATTAACATCACGGGAATACCTGATGTTAATCGGGTCTTGATTCGCTTGACGCTGCTG")
5.81
>>> value_measured("CCGATTAACATCAACAATCCCCCTGATGTTAATCGGGTCTTGATTCGCTTGACGCTGCTG")
5.71
>>> value_measured("CCGATTAACATCACGGTGGGAAATGATGTTAATCGGGTCTTGATTCGCTTGACGCTGCTG")
1.94

**Q:** Would you kindly share the measured binding signal for CCGATTAACATCAATAACCCCCATGATGTTAATCGGGTCTTGATTCGCTTGACGCTGCTG ?
**A:** 4.84

----------
# ASSAY TARGET: GST-Aq-NF-kB (Amphimedon queenslandica, UniProt A9Y5G7 2-389)
# Sequence: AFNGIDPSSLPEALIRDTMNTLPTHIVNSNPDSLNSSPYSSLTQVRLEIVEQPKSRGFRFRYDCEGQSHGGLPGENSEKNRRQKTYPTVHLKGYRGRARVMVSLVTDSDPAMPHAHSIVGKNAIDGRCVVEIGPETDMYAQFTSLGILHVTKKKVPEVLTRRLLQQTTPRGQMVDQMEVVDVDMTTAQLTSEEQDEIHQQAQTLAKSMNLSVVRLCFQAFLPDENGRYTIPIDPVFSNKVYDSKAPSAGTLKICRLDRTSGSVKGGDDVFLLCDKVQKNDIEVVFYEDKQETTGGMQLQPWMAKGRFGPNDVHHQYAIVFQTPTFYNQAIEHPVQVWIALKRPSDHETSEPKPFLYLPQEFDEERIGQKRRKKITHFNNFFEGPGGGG
# ASSAY NOTES: protein-binding microarray (PBM); PBM: ~300 nM protein, 6 mM HEPES pH 7.8, 80 mM KCl, 0.5 mM EDTA, 0.5 mM EGTA, 6% glycerol, 35 ng/ul poly-dIdC, 1% milk, 1 h, room temperature; high values mean tight binding
# ASSAY CONTEXT: dsDNA, one strand shown
A collection of sequences and their measured binding signal
Return type: number; implicit unit z-score.

Below, each entry is followed by its recorded binding signal result.
>>> value_measured("CCGATTAACATCAAGGACATTCCTGATGTTAATCGGGTCTTGATTCGCTTGACGCTGCTG")
1.43
>>> value_measured("CCGATTAACATCATATTTCCCCATGATGTTAATCGGGTCTTGATTCGCTTGACGCTGCTG")
5.08

**Q:** Would you kindly share the measured binding signal for CCGATTAACATCACATGTTTCCCTGATGTTAATCGGGTCTTGATTCGCTTGACGCTGCTG ?
**A:** 4.01

----------
# ASSAY TARGET: GST-Nv-NF-kB (Cys allele) (Nematostella vectensis, UniProt E5G601 2-411)
# Sequence: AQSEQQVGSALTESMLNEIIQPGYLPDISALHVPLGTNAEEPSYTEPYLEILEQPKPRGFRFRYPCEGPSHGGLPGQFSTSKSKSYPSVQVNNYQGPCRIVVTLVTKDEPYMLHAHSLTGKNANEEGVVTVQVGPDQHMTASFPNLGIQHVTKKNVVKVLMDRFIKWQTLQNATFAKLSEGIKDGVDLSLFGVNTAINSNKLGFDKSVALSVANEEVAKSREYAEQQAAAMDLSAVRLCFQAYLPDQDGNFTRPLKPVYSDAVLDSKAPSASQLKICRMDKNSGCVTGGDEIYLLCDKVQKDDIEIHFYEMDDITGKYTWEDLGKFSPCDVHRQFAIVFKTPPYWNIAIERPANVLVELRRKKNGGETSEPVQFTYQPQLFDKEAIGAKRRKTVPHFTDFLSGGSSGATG
# ASSAY NOTES: protein-binding microarray (PBM); PBM: ~300 nM protein, 6 mM HEPES pH 7.8, 80 mM KCl, 0.5 mM EDTA, 0.5 mM EGTA, 6% glycerol, 35 ng/ul poly-dIdC, 1% milk, 1 h, room temperature; Ap Aiptasia and Nv Nematostella (sea anemones) / Co Capsaspora / Aq Amphimedon (sponge) / Dm Drosophila / Hu human; RHD is the Rel homology domain; high values mean tight binding
# ASSAY CONTEXT: dsDNA, one strand shown
RESULT TYPE: binding signal (z-score)
Return type: number; implicit unit z-score.

Below, each entry is followed by its recorded binding signal result.
>>> value_measured("CCGATTAACATCAGGGTAAGTACTGATGTTAATCGGGTCTTGATTCGCTTGACGCTGCTG")
3.05
>>> value_measured("CCGATTAACATCAAGTCTCCCCCTGATGTTAATCGGGTCTTGATTCGCTTGACGCTGCTG")
5.33
>>> value_measured("CCGATTAACATCAGGGAAACTCATGATGTTAATCGGGTCTTGATTCGCTTGACGCTGCTG")
4.53
>>> value_measured("CCGATTAACATCAAGAACCCCCGTGATGTTAATCGGGTCTTGATTCGCTTGACGCTGCTG")
4.55
>>> value_measured("CCGATTAACATCAAGGGGAGTCCTGATGTTAATCGGGTCTTGATTCGCTTGACGCTGCTG")
4.83

**Q:** Would you kindly share the measured binding signal for CCGATTAACATCAAGGAACTCCCTGATGTTAATCGGGTCTTGATTCGCTTGACGCTGCTG ?
**A:** 3.82

**Q:** Would you kindly share the measured binding signal for CCGATTAACATCAGAAAAAACCCTGATGTTAATCGGGTCTTGATTCGCTTGACGCTGCTG ?
**A:** 4.93

**Q:** Would you kindly share the measured binding signal for CCGATTAACATCACGTATTCCCCTGATGTTAATCGGGTCTTGATTCGCTTGACGCTGCTG ?
**A:** 7.75

**Q:** Would you kindly share the measured binding signal for CCGATTAACATCAGAAACTTCCCTGATGTTAATCGGGTCTTGATTCGCTTGACGCTGCTG ?
**A:** 5.22

**Q:** Would you kindly share the measured binding signal for CCGATTAACATCAGCAATTTCCCTGATGTTAATCGGGTCTTGATTCGCTTGACGCTGCTG ?
**A:** 4.55

**Q:** Would you kindly share the measured binding signal for CCGATTAACATCAAGGGGAAAAATGATGTTAATCGGGTCTTGATTCGCTTGACGCTGCTG ?
**A:** 8.51

**Q:** Would you kindly share the measured binding signal for CCGATTAACATCAGAGGATTCCCTGATGTTAATCGGGTCTTGATTCGCTTGACGCTGCTG ?
**A:** 4.52

**Q:** Would you kindly share the measured binding signal for CCGATTAACATCACTAGTCCCCCTGATGTTAATCGGGTCTTGATTCGCTTGACGCTGCTG ?
**A:** 3.39

**Q:** Would you kindly share the measured binding signal for CCGATTAACATCAGGGACTTTCATGATGTTAATCGGGTCTTGATTCGCTTGACGCTGCTG ?
**A:** 7.24

**Q:** Would you kindly share the measured binding signal for CCGATTAACATCAAACTTTCCCATGATGTTAATCGGGTCTTGATTCGCTTGACGCTGCTG ?
**A:** 4.83

**Q:** Would you kindly share the measured binding signal for CCGATTAACATCAGGGGGTGATATGATGTTAATCGGGTCTTGATTCGCTTGACGCTGCTG ?
**A:** 3.66

**Q:** Would you kindly share the measured binding signal for CCGATTAACATCAGGACGCCCCCTGATGTTAATCGGGTCTTGATTCGCTTGACGCTGCTG ?
**A:** 5.13

**Q:** Would you kindly share the measured binding signal for CCGATTAACATCAGGGGAACAAATGATGTTAATCGGGTCTTGATTCGCTTGACGCTGCTG ?
**A:** 4.83

**Q:** Would you kindly share the measured binding signal for CCGATTAACATCAGGGAAGACCCTGATGTTAATCGGGTCTTGATTCGCTTGACGCTGCTG ?
**A:** 5.72

**Q:** Would you kindly share the measured binding signal for CCGATTAACATCAAAACACTCCCTGATGTTAATCGGGTCTTGATTCGCTTGACGCTGCTG ?
**A:** 3.3

**Q:** Would you kindly share the measured binding signal for CCGATTAACATCACCCCATCCCCTGATGTTAATCGGGTCTTGATTCGCTTGACGCTGCTG ?
**A:** 2.64

**Q:** Would you kindly share the measured binding signal for CCGATTAACATCAACCCCAGCTCTGATGTTAATCGGGTCTTGATTCGCTTGACGCTGCTG ?
**A:** 1.21

**Q:** Would you kindly share the measured binding signal for CCGATTAACATCAGGACCTCCCCTGATGTTAATCGGGTCTTGATTCGCTTGACGCTGCTG ?
**A:** 4.17

**Q:** Would you kindly share the measured binding signal for CCGATTAACATCAAAATTCCCACTGATGTTAATCGGGTCTTGATTCGCTTGACGCTGCTG ?
**A:** 5.68

**Q:** Would you kindly share the measured binding signal for CCGATTAACATCAGAAATTGCCCTGATGTTAATCGGGTCTTGATTCGCTTGACGCTGCTG ?
**A:** 1.33
